B1: VDR (parent)
chain: VTLELSQLSMLPHLADLVSYSIQK

Variants of: B1
Test: protein stability index of a GFP-peptide fusion (GPS, HEK-293T) (PSI 1-6); higher = more stable;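 also: lentivirally expressed fusions sorted by FACS into six bins by GFP to DsRed ratio, PSI derived from sequencing read proportions per bin multiplied by bin number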
Details: c terminus: a fixed tail appended
Decision: protein stability index >= 3 yields Satisfied, all other cases yield Not satisfied.

# Sequence input, Classification
records = [
    ("VTLELSQLSMLPHLADLVSLSIQK [Y20L]", "Satisfied"),
    ("VTLELSQLSMLPHLAQLVSYSIQK [D16Q]", "Satisfied"),
    ("VTLELSQLSMLPHLADLVVYSIQK [S19V]", "Satisfied"),
    ("VTLELSQLSMLPHLADLVSYSIQT [K24T]", "Satisfied"),
    ("VTLELSQLSMLPHLADLVSYSIQV [K24V]", "Satisfied"),
    ("VTLELSQLSMLPHEADLVSYSIQK [L14E]", "Not satisfied"),
    ("VTLELSQLSMSPHLADLVSYSIQK [L11S]", "Not satisfied"),
    ("VTLELSQLSMLCHLADLVSYSIQK [P12C]", "Satisfied"),
    ("VTLELSQLHMLPHLADLVSYSIQK [S9H]", "Satisfied"),
    ("VTLELSQLSMLPHLADLRSYSIQK [V18R]", "Not satisfied"),
    ("VTLELSQLSMVPHLADLVSYSIQK [L11V]", "Not satisfied"),
    ("VTLEWSQLSMLPHLADLVSYSIQK [L5W]", "Not satisfied"),
    ("VTLELSQLSMLPHLADGVSYSIQK [L17G]", "Not satisfied"),
    ("VTLELSQLSMLKHLADLVSYSIQK [P12K]", "Not satisfied"),
    ("VTLQLSQLSMLPHLADLVSYSIQK [E4Q]", "Satisfied"),
    ("VTLELSQLEMLPHLADLVSYSIQK [S9E]", "Satisfied"),
    ("VTLGLSQLSMLPHLADLVSYSIQK [E4G]", "Not satisfied"),
    ("VTLELSQLSMLPHLADLVSDSIQK [Y20D]", "Not satisfied"),
    ("VTLELSQLSLLPHLADLVSYSIQK [M10L]", "Not satisfied"),
    ("DTLELSQLSMLPHLADLVSYSIQK [V1D]", "Not satisfied"),
    ("VTLELSQLSMLPHLADLVSYSIIK [Q23I]", "Not satisfied"),
    ("VTLELSQLSMLPHLIDLVSYSIQK [A15I]", "Satisfied"),
    ("VSLELSQLSMLPHLADLVSYSIQK [T2S]", "Satisfied"),
    ("VTLELSQLSMLPHLADLVSNSIQK [Y20N]", "Not satisfied"),
    ("VTLELSQLSMLPHLADLVGYSIQK [S19G]", "Satisfied"),
    ("VTLELFQLSMLPHLADLVSYSIQK [S6F]", "Not satisfied"),
    ("VTLELSQLSMLPHLADLVSYSIQN [K24N]", "Satisfied"),
    ("VTLELSQLSMLPHLWDLVSYSIQK [A15W]", "Not satisfied"),
    ("VTLELSQLSMLPHLADEVSYSIQK [L17E]", "Not satisfied"),
    ("VTLELSVLSMLPHLADLVSYSIQK [Q7V]", "Not satisfied"),
    ("VTLTLSQLSMLPHLADLVSYSIQK [E4T]", "Not satisfied"),
    ("VTLELSQLSMLPHLADLVSYSSQK [I22S]", "Not satisfied"),
    ("FTLELSQLSMLPHLADLVSYSIQK [V1F]", "Not satisfied"),
    ("VTLELSQKSMLPHLADLVSYSIQK [L8K]", "Satisfied"),
    ("VTLELSQQSMLPHLADLVSYSIQK [L8Q]", "Not satisfied"),
    ("VTLPLSQLSMLPHLADLVSYSIQK [E4P]", "Satisfied"),
    ("STLELSQLSMLPHLADLVSYSIQK [V1S]", "Not satisfied"),
    ("VTLDLSQLSMLPHLADLVSYSIQK [E4D]", "Satisfied"),
    ("VTLELSKLSMLPHLADLVSYSIQK [Q7K]", "Not satisfied"),
    ("VTSELSQLSMLPHLADLVSYSIQK [L3S]", "Not satisfied"),
    ("VTLELSQLSMFPHLADLVSYSIQK [L11F]", "Not satisfied"),
    ("VTLELSQLSGLPHLADLVSYSIQK [M10G]", "Not satisfied"),
    ("VDLELSQLSMLPHLADLVSYSIQK [T2D]", "Not satisfied"),
    ("VTMELSQLSMLPHLADLVSYSIQK [L3M]", "Satisfied"),
    ("VTLELSQLSMLPHKADLVSYSIQK [L14K]", "Not satisfied"),
    ("VTLELCQLSMLPHLADLVSYSIQK [S6C]", "Not satisfied"),
    ("VTLELSQLSMLPDLADLVSYSIQK [H13D]", "Not satisfied"),
    ("VTLELSQLSMLPILADLVSYSIQK [H13I]", "Satisfied"),
    ("VTLELSQLSMLPHLADLHSYSIQK [V18H]", "Not satisfied"),
    ("KTLELSQLSMLPHLADLVSYSIQK [V1K]", "Not satisfied"),
    ("VTLELSQLAMLPHLADLVSYSIQK [S9A]", "Not satisfied"),
    ("VTLELSQASMLPHLADLVSYSIQK [L8A]", "Not satisfied"),
    ("VTLELSQLSMLPHLADLYSYSIQK [V18Y]", "Satisfied"),
    ("VTLELSQLSDLPHLADLVSYSIQK [M10D]", "Not satisfied"),
    ("VTLELSQCSMLPHLADLVSYSIQK [L8C]", "Not satisfied"),
    ("VTLELSQGSMLPHLADLVSYSIQK [L8G]", "Not satisfied"),
    ("VTLELSYLSMLPHLADLVSYSIQK [Q7Y]", "Not satisfied"),
    ("VTLELSQLSMLPHLADLVPYSIQK [S19P]", "Not satisfied"),
    ("VTLELSQLSMLPHLADLVSCSIQK [Y20C]", "Not satisfied"),
    ("VTLELSNLSMLPHLADLVSYSIQK [Q7N]", "Not satisfied"),
    ("VTLELSQLSMLPHYADLVSYSIQK [L14Y]", "Satisfied"),
    ("VTLELSQLSMCPHLADLVSYSIQK [L11C]", "Not satisfied"),
    ("VTLELSQLSMLPHLADLVFYSIQK [S19F]", "Satisfied"),
    ("VTLELSQLSMLPHLADLVSKSIQK [Y20K]", "Not satisfied"),
    ("VTLELSQLSMLPHLADLVSYSITK [Q23T]", "Not satisfied"),
    ("VTLELSQLSMLPHLADLVSYHIQK [S21H]", "Not satisfied"),
    ("VTLEHSQLSMLPHLADLVSYSIQK [L5H]", "Not satisfied"),
    ("LTLELSQLSMLPHLADLVSYSIQK [V1L]", "Satisfied"),
    ("VTLELSQLSMLFHLADLVSYSIQK [P12F]", "Not satisfied"),
    ("VTLRLSQLSMLPHLADLVSYSIQK [E4R]", "Satisfied"),
    ("VTLELSQLSMLPHLADLVSYSWQK [I22W]", "Not satisfied"),
    ("VTLELSQLSMLPHLADLDSYSIQK [V18D]", "Not satisfied"),
    ("VTLELSQLSMLMHLADLVSYSIQK [P12M]", "Not satisfied"),
    ("VTLELSQLFMLPHLADLVSYSIQK [S9F]", "Not satisfied"),
    ("VTLELSQLSMDPHLADLVSYSIQK [L11D]", "Not satisfied"),
    ("VTVELSQLSMLPHLADLVSYSIQK [L3V]", "Not satisfied"),
    ("VTYELSQLSMLPHLADLVSYSIQK [L3Y]", "Not satisfied"),
    ("VTLELSQLSMLPHLAALVSYSIQK [D16A]", "Satisfied"),
    ("VTLELSQLSMLPHLAFLVSYSIQK [D16F]", "Satisfied"),
    ("VTLELPQLSMLPHLADLVSYSIQK [S6P]", "Not satisfied"),
    ("VTLHLSQLSMLPHLADLVSYSIQK [E4H]", "Not satisfied"),
    ("VTLELSQLSMLPHLADLVSYSIQH [K24H]", "Satisfied"),
    ("VTLELSQLSMLPHLADLISYSIQK [V18I]", "Not satisfied"),
    ("VTLELSQLSMLPHRADLVSYSIQK [L14R]", "Not satisfied"),
    ("VTLELSQLSRLPHLADLVSYSIQK [M10R]", "Satisfied"),
]
